GPX4% inhibition at 200 (μM) listing for selected molecules.
# Tested target: GPX4 (Homo sapiens)
# Sequence (P36969 28-197): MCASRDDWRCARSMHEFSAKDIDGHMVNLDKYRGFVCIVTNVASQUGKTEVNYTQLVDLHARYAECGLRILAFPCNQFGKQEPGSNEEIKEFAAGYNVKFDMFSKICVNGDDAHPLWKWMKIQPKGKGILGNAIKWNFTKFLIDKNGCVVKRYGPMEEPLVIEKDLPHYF
# Assay: GPX4 activity assay in cell lysates (NADPH-coupled)
# Format: biochemical
# Set-up: endogenous in cells; host or cells: A-673 cell lysate
# Protocol conditions: 200 μM; generation 1; mean ± s.d., n = 3

{"columns": ["Structure as smiles", "GPX4% inhibition at 200 (μM) (%)"],
 "data": [
  ["CC(C)(COC(=O)CBr)NC(=O)c1cc2ccccc2[nH]1", 33.3],
  ["C=CC(=O)OCC(C)(C)NC(=O)c1cc2ccc(Br)cc2[nH]1", 14.0],
  ["CC(C)(COC(=O)CCl)NC(=O)c1cc2ccccc2[nH]1", "−3.3"],
  ["CC(C)(COC(=O)CCl)NC(=O)c1cc2ccc(Br)cc2[nH]1", 170.3],
  ["CC(C)(COC(=O)CCl)NC(=O)Cc1cc2ccccc2[nH]1", 61.2],
  ["C=CC(=O)OCCC(C)(C)NC(=O)c1cc2ccc(OC)cc2[nH]1", 11.5],
  ["CC(C)(COC(=O)CCl)NC(=O)c1cc2cc([N+](=O)[O-])ccc2[nH]1", 87.3],
  ["CC(C)(COC(=O)CCl)NC(=O)c1[nH]c2ccccc2c1Br", 99.6],
  ["CC(C)(COC(=O)CCl)NC(=O)CCc1cc2ccccc2[nH]1", 65.5],
  ["CC(C)(COC(=O)CCl)NC(=O)c1cc2cc(Cl)ccc2[nH]1", 53.3],
  ["CC(C)(COC(=O)CCl)NC(=O)c1c[nH]c2ccccc12", 75.9],
  ["COc1ccc2cc(C(=O)NCC(C)(C)COC(=O)CCl)[nH]c2c1", 68.9],
  ["Cn1cc(C(=O)NC(C)(C)COC(=O)C#C[Si](C)(C)C)c2ccc(Br)cc21", 67.2],
  ["C=CC(=O)OCC(C)(C)NC(=O)c1cc2ccccc2s1", 5.9],
  ["COc1cccc2[nH]c(C(=O)NC(C)(C)COC(=O)CBr)cc12", 56.0],
  ["COc1ccc2cc(C(=O)NCC(C)(C)COC(=O)CBr)[nH]c2c1", 88.7],
  ["C=CC(=O)OCCNC(=O)c1cc2ccc(OC)cc2[nH]1", 3.3],
  ["COc1cccc2[nH]c(C(=O)NC(C)(C)COC(=O)CCl)cc12", 50.0],
  ["CC(C)(COC(=O)CCl)NC(=O)c1c[nH]c2cc(Br)ccc12", 87.2],
  ["Cc1onc(C(=O)OCC(C)(C)NC(=O)c2c[nH]c3ccccc23)c1[N+](=O)[O-]", "−6.6"]
]}

* * *

GPX4% inhibition at 2.5 μM listing for selected molecules.
# Tested target: UniProt:P36969
# Assay: GPX4 activity assay in cell lysates (NADPH-coupled)
# Type: biochemical
# Design: endogenous in cells; host or cells: A-673 cell lysate
# Protocol conditions: 2.5 μM; 4th generation
Measured quantity: GPX4% inhibition at 2.5 μM (%)

{"columns": ["Molecule", "Tested target", "Quantity unit", "Measured value"],
 "data": [
  ["COc1ccc(-c2ccc3c(C(=O)NC(C)(C)COC(=O)CCl)nn(Cc4ccc(C(F)(F)F)cc4)c3c2)cc1Cl [QW-873]", "UniProt:P36969", "%", 45.6],
  ["C=CC(=O)OCC(C)(C)NC(=O)c1nn(Cc2ccc(Cl)cc2)c2cc(-c3ccc(OC)c(Cl)c3)ccc12 [QW-831]", "UniProt:P36969", "%", 32.6],
  ["COc1ccc(-c2cc(Cl)cc(Cn3nc(C(=O)NC(C)(C)COC(=O)CCl)c4ccc(-c5ccc(OC)c(Cl)c5)cc43)c2)cc1Cl [QW-853]", "UniProt:P36969", "%", 45.5],
  ["COc1ccc(-c2ccc3c(C(=O)NC(C)(C)C(C)(C)OC(=O)CCl)nn(Cc4ccc(Cl)cc4)c3c2)cc1Cl [QW-809]", "UniProt:P36969", "%", 34.6],
  ["COc1ccc(-c2ccc3c(C(=O)NC(C)(C)COC(=O)CCl)nn(Cc4cc(Cl)cc(Cl)c4)c3c2)cc1Cl [QW-851]", "UniProt:P36969", "%", 114.9],
  ["COc1ccc(-c2ccc3c(C(=O)NC(C)(C)COC(=O)CCl)nn(Cc4ccc(Cl)cc4)c3c2)cc1Cl [QW-823]", "UniProt:P36969", "%", 95.0],
  ["CCOc1ccc(-c2ccc3c(C(=O)NC(C)(C)COC(=O)CCl)nn(Cc4ccc(Cl)cc4)c3c2)cc1Cl [QW-840]", "UniProt:P36969", "%", 80.1],
  ["CC(C)(NC(=O)c1nn(Cc2ccc(Cl)cc2)c2cc(-c3ccc(N4CCOCC4)c(Cl)c3)ccc12)C(C)(C)OC(=O)CCl [QW-811]", "UniProt:P36969", "%", 47.4],
  ["COc1ccc(-c2cc(Cl)cc(Cn3nc(C(=O)NC(C)(C)C(C)(C)OC(=O)CCl)c4ccc(-c5ccc(OC)c(Cl)c5)cc43)c2)cc1Cl [QW-888]", "UniProt:P36969", "%", 78.7],
  ["CC(C)Oc1ccc(-c2ccc3c(C(=O)NC(C)(C)COC(=O)CCl)nn(Cc4ccc(Cl)cc4)c3c2)cc1Cl [QW-841]", "UniProt:P36969", "%", 91.3],
  ["CC(C)(COC(=O)CCl)NC(=O)c1nn(Cc2ccc(C(F)(F)F)cc2)c2cc(-c3ccc(N4CCOCC4)c(Cl)c3)ccc12 [QW-874]", "UniProt:P36969", "%", 57.5],
  ["CC(C)(COC(=O)CCl)NC(=O)c1nn(Cc2cc(Cl)cc(Cl)c2)c2cc(-c3ccc(N4CCOCC4)c(Cl)c3)ccc12 [QW-852]", "UniProt:P36969", "%", 88.2]
]}
